- PROCEDURE_SUMMARY: in vivo
- MEASUREMENT_CONDITIONS: rat, iv
- Description: Clearance in rat at 0.1 mg/kg, iv or 1 mg/kg, po administered as cassette dose by LC-MS/MS analysis
Below is a list of entries, each paired with its recorded clearance value.
State the result as a value with its unit after it.

| MOL_SMILES | clearance |
| --- | --- |
| COCCCCc1c(C(=O)N(CC(C)C)[C@@H]2CNC[C@H](C(=O)N3CCOCC3)C2)nnn1-c1ccccc1 | 5.54 L/h/kg |
| COCCCCn1c(C(=O)N(CC(C)C)[C@@H]2CNC[C@H](C(=O)N3CCOCC3)C2)cnc1-c1ccccc1 | 5.8 L/h/kg |
| COCCCCn1c(C(=O)N(CC(C)C)[C@@H]2CNC[C@H](C(=O)N3CCOCC3)C2)ccc1-c1ccccc1 | 2.97 L/h/kg |
| CCn1c(C(=O)N(CC(C)C)[C@@H]2CNC[C@H](C(=O)N3CCOCC3)C2)nc2ccccc21 | 2.31 L/h/kg |
| CC(C)CN(C(=O)c1nc2ccccc2[nH]1)[C@@H]1CNC[C@H](C(=O)N2CCOCC2)C1 | 2.05 L/h/kg |
| COCCCCc1c(C(=O)N(CC(C)C)[C@@H]2CNC[C@H](C(=O)N3CCOCC3)C2)cnn1-c1ccccc1 | 4.83 L/h/kg |

# context switch: different compound, same clearance
Problem: I have this compound here, COCCCNc1nc(C(C)(C)C)ncc1C(=O)N(CC(C)C)[C@@H]1CNC[C@H](C(=O)N2CCOCC2)C1 , and I need its recorded clearance.
Solution: 7.26 L/h/kg
